assay: Clearance in rat; assay type: ADME; conditions: in vivo
metric: clearance

Incoming: Entry CN1C(=O)CCC1c1cc2[nH]c(-c3ccccn3)cc2cc1Oc1ccc(S(C)(=O)=O)nc1 (single isomer, unassigned; ent-1) has what clearance?
Outgoing: 18 mL/min/kg

###

Kindly state pEC50 for each of the entries shown.
target: Hexokinase-4 (Homo sapiens, UniProt P35557); assay: Activation of recombinant human glucokinase assessed as conversion of D-glucose to D-glucose-6-phosphate in presence of 2.5 mM glucose by G6PDH coupled spectrophotometric assay
Sequence (P35557 whole entry): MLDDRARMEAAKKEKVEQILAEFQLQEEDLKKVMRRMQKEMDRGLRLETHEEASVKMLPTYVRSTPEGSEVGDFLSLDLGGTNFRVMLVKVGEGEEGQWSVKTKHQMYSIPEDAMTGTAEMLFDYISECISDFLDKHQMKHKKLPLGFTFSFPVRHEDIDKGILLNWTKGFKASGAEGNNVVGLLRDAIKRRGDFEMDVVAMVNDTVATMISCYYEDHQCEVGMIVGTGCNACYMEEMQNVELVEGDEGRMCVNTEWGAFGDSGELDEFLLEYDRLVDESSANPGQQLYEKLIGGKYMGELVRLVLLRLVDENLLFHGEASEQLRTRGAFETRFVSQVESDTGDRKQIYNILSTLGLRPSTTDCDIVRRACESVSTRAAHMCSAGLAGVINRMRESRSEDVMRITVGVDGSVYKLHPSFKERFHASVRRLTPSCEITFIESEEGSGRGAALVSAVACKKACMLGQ
Numbers only, as −log10 of the molar value.

- Cc1cnc(-c2cc3cc(Oc4ccc(S(C)(=O)=O)nc4)c(C4CCC(=O)N4C)cc3[nH]2)s1 (stereo in doubt; 2-en): 8.26
- CN1C(=O)CCC1c1cc2[nH]c(-c3cnccn3)cc2cc1Oc1ccc(S(C)(=O)=O)nc1 (stereo in doubt; 3-en): 7.32
- CN1C(=O)CCC1c1cc2[nH]c(-c3cnccn3)cc2cc1Oc1ccc(S(C)(=O)=O)nc1 (stereo in doubt; 3): 8.35
- CN1C(=O)CCC1c1cc2[nH]c(-c3ccccn3)cc2cc1Oc1ccc(S(C)(=O)=O)nc1 (stereo in doubt; 1-en): 8.38
- CN1C(=O)CCC1c1cc2[nH]c(-c3ccc(C(C)(C)O)cn3)cc2cc1Oc1ccc(S(C)(=O)=O)nc1 (stereo in doubt; 4): 8.32
- CN1C(=O)CCC1c1cc2[nH]c(-c3ccc(C(F)(F)F)cn3)cc2cc1Oc1ccc(S(C)(=O)=O)nc1 (stereo in doubt; 5): 8.62

Incoming: Entry CN1C(=O)CCC1c1cc2[nH]c(-c3ccc(C(F)(F)F)cn3)cc2cc1Oc1ccc(C(=O)O)cc1 (configuration not stated) has what pEC50?
Outgoing: 7.62
